Measured On: Human immunodeficiency virus type 1 integrase (Human immunodeficiency virus 1)
Experiment: Inhibition of LEDGF/p75-independant HIV1 His/FLAG-tagged integrase expressed in Escherichia coli BL21(DE3) by HTRF assay
Measured Attribute: pIC50
Scale explanation: pIC50 corresponds to minus log10 of a concentration expressed in moles per litre.

Compound: CC(C)(C)OC(C(=O)O)c1c(-c2ccc3c(c2)CCCO3)nc(-c2cccc(F)c2)c2ccccc12 (stereo unspecified)
Measured On: Human immunodeficiency virus type 1 integrase (Human immunodeficiency virus 1)
Reported Result: 4.89
//
Compound: CC(C)(C)OC(C(=O)O)c1c(-c2ccc3c(c2)CCCO3)nc(-c2cnn(Cc3ccccc3)c2)c2ccccc12 (stereo unspecified)
Measured On: Human immunodeficiency virus type 1 integrase (Human immunodeficiency virus 1)
Reported Result: 6.32

[in] Need pIC50, item Cc1nc2ccc(Br)cc2c(-c2ccc(Cl)cc2)c1C(OC(C)(C)C)C(=O)O (stereo unspecified)
[out] 6.92

[in] Need pIC50, item CC(C)(C)OC(C(=O)O)c1c(-c2ccc3c(c2)CCCO3)nc(-c2ccc(C(F)(F)F)cc2)c2ccccc12 (stereo unspecified)
[out] 5.12

[in] Need pIC50, item CC(C)(C)OC(C(=O)O)c1c(-c2ccccc2)nc(-c2ccccc2)c2ccccc12 (stereo unspecified)
[out] 5.00

[in] Need pIC50, item COc1cccc(-c2nc(-c3ccc4c(c3)CCCO4)c(C(OC(C)(C)C)C(=O)O)c3ccccc23)c1 (stereo unspecified)
[out] 5.94

====

Measured On: Human immunodeficiency virus type 1 integrase (Human immunodeficiency virus 1, UniProt Q7ZJM1)
Sequence (Q7ZJM1 whole entry): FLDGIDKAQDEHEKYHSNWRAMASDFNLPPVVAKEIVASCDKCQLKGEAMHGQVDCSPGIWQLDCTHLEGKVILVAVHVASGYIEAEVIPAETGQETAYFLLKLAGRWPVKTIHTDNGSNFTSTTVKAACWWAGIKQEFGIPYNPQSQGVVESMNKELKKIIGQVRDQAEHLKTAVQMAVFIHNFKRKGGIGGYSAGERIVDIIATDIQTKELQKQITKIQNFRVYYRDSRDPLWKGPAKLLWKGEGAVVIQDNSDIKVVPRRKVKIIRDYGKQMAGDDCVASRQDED
Experiment: Inhibition of biotinylated-TAR-RNA binding to HIV1 His6-tagged integrase expressed in Escherichia coli BL21(DE3) preincubated for 2 hrs followed by RNA addition and measured after 2 hrs by Alpha screen assay
Measured Attribute: pIC50
Scale explanation: pIC50 corresponds to minus log10 of a concentration expressed in moles per litre.

Compound: CC(C)(C)OC(C(=O)O)c1c(-c2ccc3c(c2)CCCO3)nc(-c2cnn(Cc3ccccc3)c2)c2ccccc12 (configuration not stated)
pIC50: 6.68

[in] Need pIC50, item Cc1nc2ccc(Br)cc2c(-c2ccc(Cl)cc2)c1C(OC(C)(C)C)C(=O)O (configuration not stated)
[out] 6.87

====

Tested on: Human immunodeficiency virus 1
Experiment: Antiviral activity against HIV-1 NL4-3 harboring wild-type integrase infected in human HeLa TZM-bl cells after 48 hrs by p24 ELISA
Assay type: functional, organism-based
Experimental Parameters: Human immunodeficiency virus 1, NL4-3, 48 h
Measured EC50 by item
Field format: number, assumed nM, no unit text.

Molecule: CC(C)(C)OC(C(=O)O)c1c(-c2ccc3c(c2)CCCO3)nc(-c2cnn(Cc3ccccc3)c2)c2ccccc12 (configuration not stated)
Units Label: nM
Reported Result: 1100

Now take the following molecule into account.
[in] Need EC50, item Cc1nc2ccc(Br)cc2c(-c2ccc(Cl)cc2)c1C(OC(C)(C)C)C(=O)O (configuration not stated)
[out] 630

====

Measured On: Human immunodeficiency virus type 1 integrase (Human immunodeficiency virus 1, UniProt Q7ZJM1)
Experiment: Inhibition of LEDGF/p75 binding to HIV1 His/FLAG-tagged integrase expressed in Escherichia coli BL21(DE3) by HTRF assay
Measured Attribute: IC50
Your reply should be a number followed by the unit it is expressed in.

Molecule: Cc1nc2ccc(Br)cc2c(-c2ccc(Cl)cc2)c1C(OC(C)(C)C)C(=O)O (configuration not stated)
IC50: 0.15 µM

Now take the following molecule into account.
[in] Need IC50, item CC(C)(C)OC(C(=O)O)c1c(-c2ccc3c(c2)CCCO3)nc(-c2cnn(Cc3ccccc3)c2)c2ccccc12 (configuration not stated)
[out] 36.7 µM

====

Measured On: UniProt:Q7ZJM1
Experiment: Induction of HIV1 His/FLAG-tagged integrase hyper-multimerization expressed in Escherichia coli BL21(DE3) by HTRF assay
Measured Attribute: EC50 (nM)
Field format: number, assumed nM, no unit text.

[in] What measured EC50 is associated with Cc1nc2ccc(Br)cc2c(-c2ccc(Cl)cc2)c1C(OC(C)(C)C)C(=O)O (configuration not stated) on UniProt:Q7ZJM1?
[out] 146

====

Measured On: Human immunodeficiency virus type 1 integrase (Human immunodeficiency virus 1, UniProt Q7ZJM1)
Experiment: Inhibition of LEDGF/p75-independant HIV1 His/FLAG-tagged integrase expressed in Escherichia coli BL21(DE3) by HTRF assay
Measured Attribute: pIC50
Scale explanation: pIC50 corresponds to minus log10 of a concentration expressed in moles per litre.

Compound: CC(C)(C)OC(C(=O)O)c1c(-c2ccc3c(c2)CCCO3)nc(-c2ccco2)c2ccccc12 (stereo not drawn)
pIC50: 5.45

Compound: COc1cccc(-c2nc(-c3ccccc3)c(C(OC(C)(C)C)C(=O)O)c3ccccc23)c1 (stereo not drawn)
pIC50: 4.86

Compound: CC(C)(C)OC(C(=O)O)c1c(-c2ccc3c(c2)CCCO3)nc(-c2ccc3c(c2)CCCO3)c2ccccc12 (stereo not drawn)
pIC50: 5.91

Compound: CC(C)(C)OC(C(=O)O)c1c(-c2ccc3c(c2)CCCO3)nc(-c2ccccc2)c2ccccc12 (stereo not drawn)
pIC50: 5.33

Compound: CC(C)(C)OC(C(=O)O)c1c(-c2ccc3c(c2)CCCO3)nc(-c2ccc(-c3ccccc3)cc2)c2ccccc12 (stereo not drawn)
pIC50: 6.08

[in] Need pIC50, item CC(C)(C)OC(C(=O)O)c1c(-c2ccc3c(c2)CCCO3)nc(-c2cccc(C(=O)O)c2)c2ccccc12 (stereo not drawn)
[out] 4.91

[in] Need pIC50, item CC(C)(C)OC(C(=O)O)c1c(-c2ccc3c(c2)CCCO3)nc(-c2nc3cc(Cl)ccc3[nH]2)c2ccccc12 (stereo not drawn)
[out] 6.09

[in] Need pIC50, item COc1ccc(-c2nc(-c3ccc4c(c3)CCCO4)c(C(OC(C)(C)C)C(=O)O)c3ccccc23)cc1 (stereo not drawn)
[out] 6.00

====

Measured IC50 by item
Measured On: Human immunodeficiency virus type 1 integrase (Human immunodeficiency virus 1)
Experiment: Inhibition of LEDGF/p75-dependant HIV1 His/FLAG-tagged integrase expressed in Escherichia coli BL21(DE3) by HTRF assay
Field format: number, assumed µM, no unit text.

Compound: CC(C)(C)OC(C(=O)O)c1c(-c2ccc3c(c2)CCCO3)nc(-c2cnn(Cc3ccccc3)c2)c2ccccc12 (configuration not stated)
IC50, µM: 23.4

[in] Need IC50, item Cc1nc2ccc(Br)cc2c(-c2ccc(Cl)cc2)c1C(OC(C)(C)C)C(=O)O (configuration not stated)
[out] 0.15
